B1: KLHL14 (parent)
chain: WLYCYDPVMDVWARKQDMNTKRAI

Variants of: B1
protocol: protein stability index of a GFP-peptide fusion (GPS, HEK-293T) (PSI 1-6); higher = more stable;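 further: lentivirally expressed fusions sorted by FACS into six bins by GFP to DsRed ratio, PSI derived from sequencing read proportions per bin multiplied by bin number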
reported_conditions: c terminus: a fixed tail appended
measured_attribute: protein stability index
Please give the numeric answer without any surrounding text.

| variant_annotation | protein stability index |
| --- | --- |
| Y3M | 1.96 |

protein stability index reported for this variant A13G : 1.97

Record W12V , field protein stability index: 1.95

The reported value for V11L in terms of protein stability index is 2.04

Lab book: protein stability index of V11Q noted as 1.98

Noted for W12K : its protein stability index reads 2.03

Record summary for A23H : reported protein stability index = 2.02

Entry under test: M9Y . Its protein stability index was 2.01
